- TEST_SYSTEM: Bcl-2 protein (Recombinant Human Bcl-2 Protein) (Homo sapiens)
- Construct: purchased Novus Biologicals NBP2-34889
- Sequence (P10415 whole entry): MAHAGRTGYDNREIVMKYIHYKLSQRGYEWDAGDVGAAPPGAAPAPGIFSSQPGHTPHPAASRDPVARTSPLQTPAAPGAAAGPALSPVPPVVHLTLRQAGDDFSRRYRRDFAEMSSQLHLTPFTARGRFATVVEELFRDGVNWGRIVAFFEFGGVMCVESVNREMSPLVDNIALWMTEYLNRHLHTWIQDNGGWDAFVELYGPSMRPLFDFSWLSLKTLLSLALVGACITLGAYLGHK
- EXPERIMENT: AS-MS evaluation of binding of the Example 4 mixture library (1200 compounds/well) to Bcl-2, ASMS ratio (%)
- DETAILS: Example 4 mixture library, 1200 compounds/well, Bcl-2 protein; replicate n = 1; value belongs to the MS peak assignable to the compound
Entries and their ASMS ratio (%) n = 1 values follow.
The reply must contain the numeric value and, after it, the unit.

Worked cases, ASMS ratio (%) n = 1 given:
CCOc1cncc(-c2ccc(C(=O)N3CCN(c4ccc(C(=O)N(CC)CC)nn4)CC3)cc2F)c1    0.0%
CCOc1cccc(-c2cc(OC)c(CN3CCN(c4ccc(C(=O)N(CC)CC)cc4)CC3)c(OC)c2)c1    −0.1%
CCOc1cncc(-c2cc(OC)c(CN3CCN(c4ccc(C(=O)N(CC)CC)cc4)CC3)c(OC)c2)c1    0.0%

Short answer please: ASMS ratio (%) n = 1, Bcl-2 protein (Recombinant Human Bcl-2 Protein) (Homo sapiens), entry CCOc1cncc(-c2cc(C(=O)N3CCN(c4ccc(C(=O)NS(=O)(=O)c5ccc(NCCSc6ccccc6)c([N+](=O)[O-])c5)cc4)CC3)cc(C(F)(F)F)c2)c1
3.9%

---

- TEST_SYSTEM: Bcl-2 protein (Recombinant Human Bcl-2 Protein) (Homo sapiens)
- Construct: purchased Novus Biologicals NBP2-34889
- EXPERIMENT: AS-MS evaluation of binding of the Example 4 mixture library (1200 compounds/well) to Bcl-2, ASMS ratio (%)
- DETAILS: replicate n = 2; mixture library; value belongs to the MS peak assigned to the compound
METRIC: ASMS ratio (%) n = 2
Field: numeric (%). Do not append units.

Worked cases, ASMS ratio (%) n = 2 given:
CCOc1cncc(-c2ccc(CN3CCN(c4ccc(C(=O)NS(=O)(=O)C(C)(C)C)nn4)CC3)cc2C)c1    1.4
CCOc1cncc(-c2csc(CN3CCN(c4ccc(C(=O)NS(C)(=O)=O)nn4)CC3)c2)c1    0.0
CCOc1cccc(-c2ccccc2CN2CCN(c3ccc(C(=O)NS(C)(=O)=O)cc3)CC2)c1    0.2
CCOc1cccc(C#Cc2cncc(C(=O)N3CCN(c4ccc(C(=O)NS(=O)(=O)C(C)(C)C)cc4)CC3)c2)c1    0.0
CCOc1cccc(-c2csc(CN3CCN(c4ccc(C(=O)NS(C)(=O)=O)cc4)CC3)c2)c1    0.0

Short answer please: ASMS ratio (%) n = 2, Bcl-2 protein (Recombinant Human Bcl-2 Protein) (Homo sapiens), entry CCOc1cccc(-c2csc(C(=O)N3CCN(c4ccc(C(=O)NS(=O)(=O)C(C)(C)C)cc4)CC3)c2)c1
0.0

Now the same for CCOc1cncc(C#Cc2cc(C(=O)N3CCN(c4ccc(C(=O)NS(=O)(=O)C(C)(C)C)cc4)CC3)cc(C(F)(F)F)c2)c1
0.0

---

- TEST_SYSTEM: Bcl-2 protein (Recombinant Human Bcl-2 Protein) (Homo sapiens)
- Construct: purchased Novus Biologicals NBP2-34889
- EXPERIMENT: AS-MS evaluation of binding of the Example 4 mixture library (1200 compounds/well) to Bcl-2, ASMS ratio (%)
- DETAILS: replicate n = 1; mixture library; value belongs to the MS peak assigned to the compound
Entries and their ASMS ratio (%) n = 1 values follow.
Field: numeric (%). Do not append units.

Worked cases, ASMS ratio (%) n = 1 given:
CCOc1cncc(-c2cc(CN3CCN(c4ccc(C(=O)NS(C)(=O)=O)cc4)CC3)cc(OC(F)(F)F)c2)c1    0.0
CCOc1cncc(-c2cc(CN3CCN(c4ccc(C(=O)NS(=O)(=O)C(C)(C)C)cc4)CC3)cc(OCC)c2)c1    0.0
CCOc1cncc(-c2ccc(C(=O)N3CCN(c4ccc(C(=O)NS(=O)(=O)C(C)(C)C)cc4)CC3)cc2F)c1    0.0
CCOc1cccc(-c2cc(CN3CCN(c4ccc(C(=O)NS(=O)(=O)C(C)(C)C)cc4)CC3)cc(OCC)c2)c1    0.0
CCOc1cccc(-c2ccccc2CCC(=O)N2CCN(c3ccc(C(=O)NS(=O)(=O)C(C)(C)C)nn3)CC2)c1    0.0
CCOc1cncc(-c2ccc(CN3CCN(c4ccc(C(=O)NS(C)(=O)=O)nn4)CC3)c3ccccc23)c1    2.6
CCOc1cccc(-c2csc(CN3CCN(c4ccc(C(=O)NS(=O)(=O)C(C)(C)C)cc4)CC3)c2)c1    0.0
CCOc1cncc(-c2cc(CN3CCN(c4ccc(C(=O)NS(C)(=O)=O)nn4)CC3)cc(OCC)c2)c1    0.0
CCOc1cncc(C#Cc2cc(C(=O)N3CCN(c4ccc(C(=O)NS(=O)(=O)C(C)(C)C)nn4)CC3)cc(C(F)(F)F)c2)c1    0.0
CCOc1cccc(-c2cc(CN3CCN(c4ccc(C(=O)NS(=O)(=O)C(C)(C)C)cc4)CC3)cc(C(F)(F)F)c2)c1    4.6

Can you share its ASMS ratio (%) n = 1? I mean this compound: CCOc1cccc(C#Cc2ccccc2C(=O)N2CCN(c3ccc(C(=O)NS(=O)(=O)C(C)(C)C)cc3)CC2)c1
0.0

Now the same for CCOc1cccc(-c2cc(CN3CCN(c4ccc(C(=O)NS(C)(=O)=O)cc4)CC3)cc(OC(F)(F)F)c2)c1
0.9

Now the same for CCOc1cccc(-c2cc(OC)c(CN3CCN(c4ccc(C(=O)NS(C)(=O)=O)cc4)CC3)c(OC)c2)c1
0.0
